Items are presented alongside their recorded TGI.
Tested on: EKVX NSCLC
ASSAY PROTOCOL: NCI tumour cell line growth inhibition, 48 h

Here is how some compounds turned out for TGI.
| COMPOUND | TARGET OF ASSAY | TGI |
| --- | --- | --- |
| COC1=CC(=O)C2=C(C1=O)[C@H]1CC[C@]3(C)C(=O)CC[C@H]3[C@@H]1CC2 | EKVX NSCLC | 30.4 µM |
| O=C(NCCc1ccccn1)c1ccc2cc(C(=O)N3CC(CCl)c4ccc([N+](=O)[O-])cc43)[nH]c2c1 (stereo not drawn) | EKVX NSCLC | > 100 µM |

Item under review: CC(C)(C)OC(=O)NC(Cc1ccc(OC(C)(C)C)cc1)C(=O)N[C@H]1CC[C@H](C(=O)O)C1 (stereo partly drawn) . Reported TGI?
> 100 µM

Item under review: c1ccc(C2(c3cc4ccccc4[nH]3)OCCO2)nc1 . Reported TGI?
> 100 µM

====

Tested on: SNB-75 CNS
ASSAY PROTOCOL: NCI tumour cell line growth inhibition, 48 h
Items are presented alongside their recorded TGI.

| SMILES STRING | TGI |
| --- | --- |
| Cc1ccc(S(=O)(=O)NCCCSCCN)cc1 | > 100 µM |
| O=C(Nc1ccc(Nc2ccc(NC(=O)c3ccccc3)c3c2C(=O)c2ccccc2C3=O)c2c1C(=O)c1ccccc1C2=O)c1ccccc1 | > 100 µM |
| Cc1c(N)c(C#N)c2n(C)c3ncccc3n2c1=O | > 100 µM |
| CCc1cccc(C(C)C)c1NC(=O)C(=O)Nn1c(=S)[nH]c2ccccc2c1=O | > 100 µM |

Please look at the following molecule next.
Item under review: COC(=O)CSc1cc(Cl)c(C)cc1S(=O)(=O)Nc1n[nH]c(N)n1 . Reported TGI?
> 10 µM

====

Items are presented alongside their recorded TGI.
Tested on: M14 melanoma
ASSAY PROTOCOL: NCI tumour cell line growth inhibition, 48 h

Here is how some compounds turned out for TGI.
| COMPOUND | TGI |
| --- | --- |
| O=S(=O)(N=[Se](=O)(c1ccccc1)c1ccccc1)c1ccccc1 | > 100 µM |
| Cc1cc(C(O)CCCc2ccccc2)cc(C)c1O (stereo not given) | > 100 µM |
| CC(=O)n1nc(-c2[nH]c(C)c(-c3nn(C(C)=O)c(=S)o3)c2C)oc1=S | > 100 µM |
| CC(=O)[CH-]C(=O)c1ccccc1.CC(=O)[CH-]C(=O)c1ccccc1.CC[C@H](CCC(C)[C@H]1CCC2[C@@H]3CC=C4C[C@@H]([O-])CC[C@]4(C)C3CC[C@@]21C)C(C)C.CC[C@H](CCC(C)[C@H]1CCC2[C@@H]3CC=C4C[C@@H]([O-])CC[C@]4(C)C3CC[C@@]21C)C(C)C.Cl.[Ti+4] (stereo not given in full) | > 25 µM |
| O=C(O)c1cc(-c2ccc(-c3ccccc3)cc2)nc2cc3ccccc3cc12 | > 100 µM |
| Cc1cc(N(C)c2ccccc2)nc(N(C)c2ccccc2)n1 | > 100 µM |
| OCC1NC(CO)C(O)C1O (stereo not given) | > 100 µM |
| O=C1NC(=Nc2ccccc2Cl)N/C1=C\c1c(Cl)cccc1Cl | > 100 µM |

Item under review: OC(Cc1cnnc2ccccc12)C(Cl)(Cl)Cl (stereo not given) . Reported TGI?
> 10 µM

Item under review: NNC(=O)N/N=C(/CC1(O)C(=O)Nc2ccc(Br)cc21)c1ccccc1 (stereo not given) . Reported TGI?
> 100 µM

Item under review: COc1cc(O)c2c(c1C)C(C)(O)c1c(C)coc1C2=O (stereo not given) . Reported TGI?
> 100 µM

Item under review: Cc1cccc2c(N)c3cccc(C(=O)NCCNCCN)c3nc12 . Reported TGI?
> 100 µM

Item under review: Cc1ccc(N=NC(=O)NNc2ccc(C)cc2Br)c(Br)c1 . Reported TGI?
72 µM

Item under review: CCOC(=O)C(Cc1ccccc1)n1c(O)c(/C=N/c2ncc(Cc3ccc(Cl)cc3Cl)s2)sc1=S (stereo not given) . Reported TGI?
16.7 µM

Item under review: Cc1cc(C)c([O-])c(-[n+]2c(-c3ccccc3)cc(-c3ccccc3)cc2-c2ccccc2)c1 . Reported TGI?
18.3 µM

====

Items are presented alongside their recorded TGI.
Test system: RXF 393 renal
ASSAY PROTOCOL: NCI tumour cell line growth inhibition, 48 h

Here is how some compounds turned out for TGI.
| COMPOUND | TGI |
| --- | --- |
| Nc1nc2c(ncn2C2OC(CO)C(O)C2O)c(=O)o1 (stereo unspecified) | > 100 µM |
| CN(C)CC1CCCC/C1=N\OC(=O)c1ccccc1 (stereo unspecified) | > 100 µM |

Item under review: CN1C(=O)C(O)CC1c1ccccc1F (stereo unspecified) . Reported TGI?
> 100 µM

====

System: OVCAR-4 ovarian
ASSAY PROTOCOL: NCI tumour cell line growth inhibition, 48 h
Items are presented alongside their recorded TGI.

Here is how some compounds turned out for TGI.
| COMPOUND | TARGET OF ASSAY | TGI |
| --- | --- | --- |
| NC(=O)NC(=O)Nc1ccc(Br)cc1 | OVCAR-4 ovarian | > 38.5 µM |
| CC(=O)OC[C@@]1(C)[C@@H]2[C@@H]3[C@@]4(CO[C@]3(C)C(=O)[C@@]3(OC(C)=O)C[C@H](C)[C@H](OC(C)=O)[C@@H]3[C@H]4OC(C)=O)[C@H](OC(=O)c3ccccc3)C[C@@H]21 | OVCAR-4 ovarian | > 100 µM |
| [N-]=[N+]=NC1(Cc2ccccc2)C(=O)Nc2ccccc2C1=O (stereo not given) | OVCAR-4 ovarian | > 100 µM |
| CCN(CC)CC(C(C)=O)C(c1ccccc1)c1c(O)c2ccccc2oc1=O (stereo not given) | OVCAR-4 ovarian | > 100 µM |
| CN1C(=O)[C@@H](CC2CCCC2)N(C2CCCC2)c2nc(Nc3cc(Cl)c(O)c(Cl)c3)ncc21 | OVCAR-4 ovarian | > 100 µM |
| NC(=S)N/N=C/C(O[C@@H](/C=N/NC(N)=S)CO)n1cnc2c(N)ncnc21 (stereo not given in full) | OVCAR-4 ovarian | > 100 µM |
| CN(C)/C=N/c1cc(=O)n(C)c(=O)n1C | OVCAR-4 ovarian | > 100 µM |
| Cc1ccc(S(=O)(=O)NCCCSCCN)cc1 | OVCAR-4 ovarian | > 100 µM |

Item under review: O=[N+]([O-])c1ccc(C2Nn3c(nnc3-c3cccc([N+](=O)[O-])c3)S2)cc1 (stereo not given) . Reported TGI?
> 100 µM

Item under review: Cc1cc(N(C)c2ccccc2)nc(N(C)c2ccccc2)n1 . Reported TGI?
> 100 µM

====

Tested on: HT29 colon
ASSAY PROTOCOL: NCI tumour cell line growth inhibition, 48 h
ASSAY METRIC: TGI (µM)
# number only, unit µM dropped from output

| MOLECULE | REPORTED MEASUREMENT |
| --- | --- |
| COC(=O)C1=C(N)C2=C(N)Oc3ccccc3C2CC1=C(C#N)C#N (stereo unspecified) | 53.3 |
| Nc1ccc(C2(c3ccc(N)cc3)C3CC4CC(C3)CC2C4)cc1 | 26.3 |

Item under review: CC(C)(Oc1cccc(N2CCC[C@@H](C(=O)N(Cc3ccc(-c4cn[nH]c4)cc3)C3CC3)C2)c1)C(=O)N1CCNCC1 . Reported TGI?
19.7

====

Tested on: MALME-3M melanoma
ASSAY PROTOCOL: NCI tumour cell line growth inhibition, 48 h; in the data active = GI50 below about 0.43 µM; inactive = the rest
Log the outcome using a class from active, inactive

Recorded test call requested for CN1C(=O)[C@@H](CC2CCCC2)N(C2CCCC2)c2nc(Nc3cc(Cl)c(O)c(Cl)c3)ncc21
inactive

====

Tested on: OVCAR-5 ovarian
ASSAY PROTOCOL: NCI tumour cell line growth inhibition, 48 h
Items are presented alongside their recorded TGI.

Here is how some compounds turned out for TGI.
| COMPOUND | TARGET OF ASSAY | TGI |
| --- | --- | --- |
| N#Cc1c(-c2ccccc2)nc(SCC(O)CN2CCOCC2)nc1N1CCOCC1 (stereo not drawn) | OVCAR-5 ovarian | > 100 µM |
| COc1cccc(N2C(=N)/C(=C3\Nc4ccccc4S3)CC2=O)c1 | OVCAR-5 ovarian | > 100 µM |
| COC(=O)c1ccccc1/C=C1\Cc2ccc3c(c2C1=O)CCC3 | OVCAR-5 ovarian | > 100 µM |
| CCN(CC)Cc1cc(Nc2ccnc3ccc(OC)cc23)ccc1O | OVCAR-5 ovarian | 28 µM |
| CS(=O)(=O)ON1C(=O)c2ccc(N)cc2C1=O | OVCAR-5 ovarian | > 100 µM |
| Cc1ccc(N=NC(=O)NNc2ccc(C)cc2Br)c(Br)c1 | OVCAR-5 ovarian | 68.4 µM |

Item under review: Cc1[nH]c2ccccc2c1/C=C/c1c(C)[nH]c2ccccc12 . Reported TGI?
> 100 µM

Item under review: CSc1ccccc1NC1=NCCO1 . Reported TGI?
> 100 µM

Recorded values, source PubChem BioAssay (NCI).
